assay: log P; format: physicochemical
experimental endpoint: logP

Requested read-out: logP. Entry: Cc1cc(C)n2c1C=C1C=CC(CCC(=O)NCCOCCOCCNC(=O)C(NC(=O)C(C)NC(=O)C(O)c3cc(F)cc(F)c3)c3ccccc3)=[N+]1[B-]2(F)F (racemic) > 3
